# ASSAYED_TARGET: wt-BTK (Homo sapiens (Human))
# Sequence (Q06187 whole entry): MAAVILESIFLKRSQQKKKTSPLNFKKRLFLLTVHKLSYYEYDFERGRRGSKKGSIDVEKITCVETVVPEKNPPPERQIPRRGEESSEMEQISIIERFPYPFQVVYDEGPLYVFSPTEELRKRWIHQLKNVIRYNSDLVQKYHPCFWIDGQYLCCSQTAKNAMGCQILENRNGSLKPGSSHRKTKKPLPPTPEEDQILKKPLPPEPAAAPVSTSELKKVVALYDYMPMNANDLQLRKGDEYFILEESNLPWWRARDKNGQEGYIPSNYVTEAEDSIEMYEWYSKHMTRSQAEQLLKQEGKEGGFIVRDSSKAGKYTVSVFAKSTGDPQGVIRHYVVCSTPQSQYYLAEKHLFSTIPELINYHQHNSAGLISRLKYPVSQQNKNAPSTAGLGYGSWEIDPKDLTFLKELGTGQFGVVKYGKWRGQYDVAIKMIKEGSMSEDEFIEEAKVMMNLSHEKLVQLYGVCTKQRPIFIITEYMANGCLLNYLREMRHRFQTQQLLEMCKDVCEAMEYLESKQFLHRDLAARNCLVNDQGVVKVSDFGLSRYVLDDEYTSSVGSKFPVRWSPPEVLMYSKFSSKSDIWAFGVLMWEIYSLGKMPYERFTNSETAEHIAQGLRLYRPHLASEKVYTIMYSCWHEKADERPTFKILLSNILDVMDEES
# TEST_SUMMARY: Binding kinetics measurements (Surface Plasmon Resonance) on wt-BTK
# COND: target residence time, SPR
# Experimental: Binding kinetics measurements on wt-BTK, BTK […], BTK […], BTK […] and BTK […] […] The kinetic constants of the compounds were determined with single cycle kinetics with five consecutive injections with an increasing compound concentration with ranges of 3.16-316 nM. […] The SPR sensorgrams were analyzed with Biacore Evaluation Software by using a method of double referencing. […] Target residence for an induced fit model was calculated as described (Tummino and Copeland, 2008).
MEASURED_PROPERTY: Tau (h) wt-BTK (Act)

>  <COMPOUND>
CC1NC/C=C/c2cnc(N)c3c(-c4ccc(C(=O)Nc5cc(C(F)(F)F)ccn5)cc4)nn(c23)[C@@H]2CCC[C@H](C2)NC1=O (single isomer, unassigned)

>  <ASSAYED_TARGET>
wt-BTK (Homo sapiens (Human))

>  <RELATIONAL_OPERATOR>
=

>  <OBSERVED_RESULT>
3.88

$$$$
>  <COMPOUND>
Cc1ccnc(NC(=O)c2ccc(-c3nc4n5c(cnc(N)c35)/C=C/CCOCCC(=O)N[C@@H]3CC[C@@H]4C3)cc2)c1

>  <ASSAYED_TARGET>
wt-BTK (Homo sapiens (Human))

>  <RELATIONAL_OPERATOR>
=

>  <OBSERVED_RESULT>
9.76

$$$$
>  <COMPOUND>
C[C@@H]1CC(=O)N[C@@H]2CCC[C@H](C2)n2nc(-c3ccc(C(=O)Nc4cc(C(F)(F)F)ccn4)cc3)c3c(N)ncc(c32)/C=C/CCN1

>  <ASSAYED_TARGET>
wt-BTK (Homo sapiens (Human))

>  <RELATIONAL_OPERATOR>
=

>  <OBSERVED_RESULT>
4.42

$$$$
>  <COMPOUND>
C[C@H]1CC(=O)N[C@@H]2CCC[C@H](C2)n2nc(-c3ccc(C(=O)Nc4cc(C(F)(F)F)ccn4)cc3)c3c(N)ncc(c32)/C=C/CCN1C

>  <ASSAYED_TARGET>
wt-BTK (Homo sapiens (Human))

>  <RELATIONAL_OPERATOR>
=

>  <OBSERVED_RESULT>
2.36

$$$$
>  <COMPOUND>
Nc1ncc2c3c1c(-c1ccc(C(=O)Nc4cc(C(F)(F)F)ccn4)cc1)nn3[C@@H]1CC[C@H](C1)NC(=O)CCCCC/C=C/2

>  <ASSAYED_TARGET>
wt-BTK (Homo sapiens (Human))

>  <RELATIONAL_OPERATOR>
=

>  <OBSERVED_RESULT>
3.66

$$$$
>  <COMPOUND>
N#Cc1ccnc(NC(=O)c2ccc(-c3nc4n5c(cnc(N)c35)/C=C/COCCC(=O)N[C@@H]3CC[C@@H]4C3)cc2)c1

>  <ASSAYED_TARGET>
wt-BTK (Homo sapiens (Human))

>  <RELATIONAL_OPERATOR>
=

>  <OBSERVED_RESULT>
1.69

$$$$
>  <COMPOUND>
Nc1ncc2c3c1c(-c1ccc(C(=O)Nc4cc(C(F)(F)F)ccn4)cc1)nn3[C@@H]1CCC[C@H](C1)NC(=O)CCOC/C=C/2

>  <ASSAYED_TARGET>
wt-BTK (Homo sapiens (Human))

>  <RELATIONAL_OPERATOR>
=

>  <OBSERVED_RESULT>
9.45

$$$$
>  <COMPOUND>
COc1ccc(F)cc1C(=O)NCc1ccc(-c2nn([C@@H](C)C(F)(F)F)c(N)c2C(N)=O)cc1 [pirtobrutinib, reference compound]

>  <ASSAYED_TARGET>
wt-BTK (Homo sapiens (Human))

>  <RELATIONAL_OPERATOR>
=

>  <OBSERVED_RESULT>
0.45

$$$$
>  <COMPOUND>
Nc1ncc2c3c1c(-c1ccc(C(=O)Nc4cc(C(F)(F)F)ccn4)cc1)nn3[C@@H]1CCC[C@H](C1)NC(=O)CCNC/C=C/2

>  <ASSAYED_TARGET>
wt-BTK (Homo sapiens (Human))

>  <RELATIONAL_OPERATOR>
=

>  <OBSERVED_RESULT>
4.34

$$$$
>  <COMPOUND>
C[C@H]1CC(=O)N[C@@H]2CCC[C@H](C2)n2nc(-c3ccc(C(=O)Nc4cc(C(F)(F)F)ccn4)cc3)c3c(N)ncc(c32)/C=C/CN1C

>  <ASSAYED_TARGET>
wt-BTK (Homo sapiens (Human))

>  <RELATIONAL_OPERATOR>
=

>  <OBSERVED_RESULT>
7.58

$$$$
>  <COMPOUND>
Nc1ncc2n3c(nc(-c4ccc(C(=O)Nc5cc(C(F)(F)F)ccn5)cc4)c13)[C@@H]1CCC[C@H](C1)NC(=O)CCCCC/C=C/2

>  <ASSAYED_TARGET>
wt-BTK (Homo sapiens (Human))

>  <RELATIONAL_OPERATOR>
=

>  <OBSERVED_RESULT>
3.70

$$$$
>  <COMPOUND>
C[C@@H]1CCn2nc(-c3ccc(C(=O)Nc4cc(C(F)(F)F)ccn4)cc3)c3c(N)ncc(c32)/C=C/CCN2CC[C@H]2C(=O)N1

>  <ASSAYED_TARGET>
wt-BTK (Homo sapiens (Human))

>  <RELATIONAL_OPERATOR>
=

>  <OBSERVED_RESULT>
4.48

$$$$
>  <COMPOUND>
C[C@@H]1CCn2nc(-c3ccc(C(=O)Nc4cc(C(F)(F)F)ccn4)cc3)c3c(N)ncc(c32)/C=C/COCC(=O)N1

>  <ASSAYED_TARGET>
wt-BTK (Homo sapiens (Human))

>  <RELATIONAL_OPERATOR>
=

>  <OBSERVED_RESULT>
2.24

$$$$
>  <COMPOUND>
Nc1ncc2c3c1c(-c1ccc(C(=O)Nc4cc(C(F)(F)F)ccn4)cc1)nn3[C@@H]1COC[C@H](C1)NC(=O)CCOC/C=C/2

>  <ASSAYED_TARGET>
wt-BTK (Homo sapiens (Human))

>  <RELATIONAL_OPERATOR>
=

>  <OBSERVED_RESULT>
3.61

$$$$
>  <COMPOUND>
C[C@@H]1CC(=O)N[C@@H]2CCC[C@H](C2)n2nc(-c3ccc(C(=O)Nc4cc(C#N)ccn4)cc3)c3c(N)ncc(c32)/C=C/CCO1

>  <ASSAYED_TARGET>
wt-BTK (Homo sapiens (Human))

>  <RELATIONAL_OPERATOR>
=

>  <OBSERVED_RESULT>
3.41

$$$$
>  <COMPOUND>
Nc1ncc2c3c1c(-c1ccc(C(=O)Nc4cc(C(F)(F)F)ccn4)cc1)nn3[C@@H]1CC[C@H](C1)NC(=O)CCOC/C=C/2

>  <ASSAYED_TARGET>
wt-BTK (Homo sapiens (Human))

>  <RELATIONAL_OPERATOR>
=

>  <OBSERVED_RESULT>
2.05

$$$$
>  <COMPOUND>
C[C@@H]1CC(=O)N[C@@H]2CCC[C@H](C2)n2nc(-c3ccc(C(=O)Nc4cc(C#N)ccn4)cc3)c3c(N)ncc(c32)/C=C/CCN1

>  <ASSAYED_TARGET>
wt-BTK (Homo sapiens (Human))

>  <RELATIONAL_OPERATOR>
=

>  <OBSERVED_RESULT>
7.42

$$$$
>  <COMPOUND>
Nc1ncc2c3c1c(-c1ccc(C(=O)Nc4cc(C(F)(F)F)ccn4)cc1)nn3[C@@H]1CCC[C@H](C1)NC(=O)CCNCC/C=C/2

>  <ASSAYED_TARGET>
wt-BTK (Homo sapiens (Human))

>  <RELATIONAL_OPERATOR>
=

>  <OBSERVED_RESULT>
3.46

$$$$
>  <COMPOUND>
N#Cc1ccnc(NC(=O)c2ccc(-c3nn4c5c(cnc(N)c35)/C=C/CCN3CC[C@H]3C(=O)N[C@@H]3CC[C@@H]4C3)cc2)c1

>  <ASSAYED_TARGET>
wt-BTK (Homo sapiens (Human))

>  <RELATIONAL_OPERATOR>
>

>  <OBSERVED_RESULT>
24

$$$$
>  <COMPOUND>
C[C@@H]1CCn2nc(-c3ccc(C(=O)Nc4cc(C#N)ccn4)cc3)c3c(N)ncc(c32)/C=C/CCOCCC(=O)N1

>  <ASSAYED_TARGET>
wt-BTK (Homo sapiens (Human))

>  <RELATIONAL_OPERATOR>
=

>  <OBSERVED_RESULT>
1.29

$$$$
>  <COMPOUND>
Cn1nc(NC(=O)c2ccc(-c3nc4n5c(cnc(N)c35)/C=C/CCOCCC(=O)N[C@@H]3CC[C@@H]4C3)cc2)cc1C(F)(F)F

>  <ASSAYED_TARGET>
wt-BTK (Homo sapiens (Human))

>  <RELATIONAL_OPERATOR>
=

>  <OBSERVED_RESULT>
4.79

$$$$
>  <COMPOUND>
Nc1ncc2c3c1c(-c1ccc(C(=O)Nc4cc(C(F)(F)F)ccn4)cc1)nn3[C@@H]1CCC[C@H](C1)NC(=O)CCCOC/C=C/2

>  <ASSAYED_TARGET>
wt-BTK (Homo sapiens (Human))

>  <RELATIONAL_OPERATOR>
=

>  <OBSERVED_RESULT>
5.05

$$$$
>  <COMPOUND>
CN1C/C=C/c2cnc(N)c3c(-c4ccc(C(=O)Nc5cc(C(F)(F)F)ccn5)cc4)nn(c23)[C@@H]2CCC[C@H](C2)NC(=O)CC1

>  <ASSAYED_TARGET>
wt-BTK (Homo sapiens (Human))

>  <RELATIONAL_OPERATOR>
=

>  <OBSERVED_RESULT>
5.24

$$$$
>  <COMPOUND>
COc1ccc(F)cc1C(=O)NCc1ccc(-c2nc3n4c(cnc(N)c24)/C=C/CCOCCC(=O)N[C@@H]2CCC[C@@H]3C2)cc1

>  <ASSAYED_TARGET>
wt-BTK (Homo sapiens (Human))

>  <RELATIONAL_OPERATOR>
=

>  <OBSERVED_RESULT>
1.22

$$$$

All values here come from patent US20250074911A1.
